measuredTarget: Type I 5α-reductase (Homo sapiens)
Construct: Scalp punch biopsies from graft recipient sites were obtained; from tissue; host or cells: human scalp skin (punch biopsies from hair transplant procedures); 100,000 x g pellet of the homogenate
Sequence (P18405 1-259): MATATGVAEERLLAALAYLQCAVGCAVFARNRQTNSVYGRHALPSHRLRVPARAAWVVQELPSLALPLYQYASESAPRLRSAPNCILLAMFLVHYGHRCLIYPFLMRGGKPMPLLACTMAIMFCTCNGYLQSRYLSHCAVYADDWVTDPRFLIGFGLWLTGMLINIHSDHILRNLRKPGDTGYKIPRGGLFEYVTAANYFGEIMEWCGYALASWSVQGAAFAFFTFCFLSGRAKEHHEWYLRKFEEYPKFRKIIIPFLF
testMethodNotes: Human Type I steroid 5α-reductase homogenate assay (conversion of [3H]-testosterone to [3H]-DHT and other 5α-reduced metabolites)
Assay type: biochemical
testConditions: 0.3 µM concentration of compound, compared to control reaction mixtures; 0.3 µM
measuredAttribute: percent inhibition of Type I 5AR (%)
Your answer should be a plain number; it is taken to be in %.

1) CN1C(=O)CC[C@]2(C)c3ccc(C=Cc4ccccc4)cc3CC[C@@H]12 [Example 285] = 93
2) CN1C(=O)CC[C@]2(C)c3ccc(-c4cc(F)c(F)c(F)c4)cc3CC[C@@H]12 [Example 206] = 100
3) CN1C(=O)CC[C@]2(C)c3ccc(CCc4ccccc4)cc3CC[C@@H]12 [Example 280] = 100
4) CN1C(=O)CC[C@]2(C)c3ccc(-c4ccc(Cl)cc4)cc3CC[C@@H]12 [Example 50] = 94

For the next question, use this compound.
Returns the measured percent inhibition of Type I 5AR for the input compound. Input: CN1C(=O)CC[C@]2(C)c3ccc(Sc4nc5c(Cl)cccc5s4)cc3CC[C@@H]12 [Example 164]
87
